Target: P-selectin (Homo sapiens)
Construct: P-selectin is isolated from human platelet lysates
Experiment: Inhibition of human neutrophil adhesion to purified P-selectin immobilized on plastic wells
Conditions: inhibiting the binding of human neutrophils to P-selectin
Where a SMILES comes first, the peptide text is derived from it. Bridges are numbered along the chain shown (N, C = ends). [ ]: non-standard residue; d: D form. dPen = CC(C)(S)[C@@H](N)C(=O)O
Could you please report measured IC50 for the items listed next?
Write down the numeric answer in µM and omit the unit.

input: For the compound CC[C@H](C)[C@@H]1NC(=O)CNC(=O)[C@@H](NC(=O)[C@@H](NC(=O)[C@H](CCCCN)NC(=O)[C@@H](N)CCCNC(=N)N)[C@@H](C)CC)CCCCNC(=O)CC[C@@H](C(=O)N[C@@H](Cc2c[nH]c3ccccc23)C(=O)N[C@H](C(N)=O)C(C)C)NC(=O)[C@H](Cc2c[nH]c3ccccc23)NC1=O [(31)] (H-RKIKGIWEWV-NH2; lactam 4-8) , what IC50 is on record?
output: 18

input: For CC(C)[C@H](NC(=O)[C@H]1CSSC[C@@H](NC(=O)[C@@H](CCCCN)NC(=O)[C@H](N)CCCNC(=N)N)C(=O)NCC(=O)N[C@@H](Cc2ccccc2)C(=O)N1)C(=O)N[C@H](Cc1c[nH]c2ccccc12)C(=O)N[C@@H](C(=O)N[C@H](Cc1c[nH]c2ccccc12)C(N)=O)[C@H](C)O [(75)] (H-[dR][dK][dC]GF[dC]V[dW][dT][dW]-NH2; disulfide 3-6) , what is its reported IC50?
output: 6

input: Entry CC(C)[C@H](NC(=O)[C@H](Cc1c[nH]c2ccccc12)NC(=O)[C@@H](NC(=O)[C@H](Cc1c[nH]c2ccccc12)NC(=O)[C@@H]1NC(=O)CNC(=O)CNC(=O)[C@H](NC(=O)[C@H](CCCCN)NC(=O)[C@@H](N)CCCNC(=N)N)C(C)(C)SSC1(C)C)[C@@H](C)O)C(N)=O [(24)] (H-RK[dPen]GG[dPen]WTWV-NH2; disulfide 3-6) has what IC50?
output: 41

---

Target: P-selectin (Homo sapiens, UniProt P16109)
Construct: P-selectin is isolated from human platelet lysates; from tissue; host or cells: human platelets (outdated platelet packs from a blood bank)
Sequence (P16109 42-830): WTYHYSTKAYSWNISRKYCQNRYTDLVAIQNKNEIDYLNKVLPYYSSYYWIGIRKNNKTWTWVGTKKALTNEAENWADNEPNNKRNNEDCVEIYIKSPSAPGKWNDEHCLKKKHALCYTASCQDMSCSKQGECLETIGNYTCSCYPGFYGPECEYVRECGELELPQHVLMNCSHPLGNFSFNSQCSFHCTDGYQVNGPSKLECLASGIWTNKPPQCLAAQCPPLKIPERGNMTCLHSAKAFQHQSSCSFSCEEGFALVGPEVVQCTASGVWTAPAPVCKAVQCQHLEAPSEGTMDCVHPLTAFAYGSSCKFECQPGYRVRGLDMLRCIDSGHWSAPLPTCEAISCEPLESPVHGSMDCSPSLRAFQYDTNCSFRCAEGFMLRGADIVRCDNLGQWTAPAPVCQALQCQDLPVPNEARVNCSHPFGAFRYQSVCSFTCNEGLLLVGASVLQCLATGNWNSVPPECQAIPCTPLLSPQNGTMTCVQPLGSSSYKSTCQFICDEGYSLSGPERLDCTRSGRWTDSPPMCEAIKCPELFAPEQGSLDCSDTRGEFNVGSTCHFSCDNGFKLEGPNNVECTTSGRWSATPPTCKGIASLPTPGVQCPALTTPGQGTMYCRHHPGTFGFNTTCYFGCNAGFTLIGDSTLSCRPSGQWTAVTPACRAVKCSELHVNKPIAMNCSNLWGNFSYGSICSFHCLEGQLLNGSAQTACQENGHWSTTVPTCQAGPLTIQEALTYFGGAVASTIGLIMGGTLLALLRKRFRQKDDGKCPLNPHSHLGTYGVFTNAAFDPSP
Test: Inhibition of human neutrophil adhesion to purified P-selectin immobilized on plastic wells
Type: cell-based
Details: inhibiting the binding of human neutrophils to P-selectin
Where a SMILES comes first, the peptide text is derived from it. Bridges are numbered along the chain shown (N, C = ends). [ ]: non-standard residue; d: D form. Phe(4-Cl) = N[C@@H](Cc1ccc(Cl)cc1)C(=O)O
For each entry below, report its IC50 value.
Could you give me the number in µM? Just the number is fine.

input: So what's the measured IC50 for this one? CC(C)[C@@H](NC(=O)[C@@H](Cc1c[nH]c2ccccc12)NC(=O)[C@H](NC(=O)[C@@H](Cc1c[nH]c2ccccc12)NC(=O)[C@H]1CSSC[C@@H](NC(=O)[C@@H](CCCCN)NC(=O)[C@H](N)CCCNC(=N)N)C(=O)N[C@H](CCCCN)C(=O)N[C@@H](Cc2ccccc2)C(=O)N1)[C@H](C)O)C(N)=O [(54)] (H-[dR][dK][dC][dK]F[dC][dW][dT][dW][dV]-NH2; disulfide 3-6)
output: 217

input: Report IC50 for CC(C)[C@@H](NC(=O)[C@@H](Cc1c[nH]c2ccccc12)NC(=O)[C@H](NC(=O)[C@@H](Cc1c[nH]c2ccccc12)NC(=O)[C@H]1CSSC[C@@H](NC(=O)[C@@H](CCCCN)NC(=O)[C@H](N)CCCNC(=N)N)C(=O)N[C@H](Cc2c[nH]cn2)C(=O)N[C@@H](Cc2ccccc2)C(=O)N1)[C@H](C)O)C(N)=O [(47)] (H-[dR][dK][dC][dH]F[dC][dW][dT][dW][dV]-NH2; disulfide 3-6) please.
output: 7

input: Any idea what IC50 was measured for CC(C)[C@@H](NC(=O)[C@@H](Cc1c[nH]c2ccccc12)NC(=O)[C@H](NC(=O)[C@@H](Cc1c[nH]c2ccccc12)NC(=O)[C@H]1CSSC[C@@H](NC(=O)[C@@H](CCCCN)NC(=O)[C@H](N)CCCNC(=N)N)C(=O)NCC(=O)N[C@@H](Cc2ccc(Cl)cc2)C(=O)N1)[C@H](C)O)C(N)=O [(115)] (H-[dR][dK][dC]G[Phe(4-Cl)][dC][dW][dT][dW][dV]-NH2; disulfide 3-6) ?
output: 1.5

---

Molecular target: P-selectin (Homo sapiens, UniProt P16109)
Construct: P-selectin is isolated from human platelet lysates
Assay: Inhibition of human neutrophil adhesion to purified P-selectin immobilized on plastic wells
Conditions: inhibiting the binding of human neutrophils to P-selectin
Where a SMILES comes first, the peptide text is derived from it. Bridges are numbered along the chain shown (N, C = ends). [ ]: non-standard residue; d: D form.
RECORDED METRIC: IC50 (µM)
State just the number; it will be interpreted in µM.

input: Item CC(=O)N[C@H](CCCCN)C(=O)N[C@@H]1CSSC[C@H](C(=O)N[C@H](Cc2c[nH]c3ccccc23)C(=O)N[C@@H](C(=O)N[C@H](Cc2c[nH]c3ccccc23)C(=O)N[C@@H](C(N)=O)C(C)C)[C@H](C)O)NC(=O)[C@H](Cc2ccc(O)cc2)NC(=O)CNC1=O [(104)] (Ac-[dK][dC]GY[dC][dW][dT][dW][dV]-NH2; disulfide 2-5) has what recorded IC50?
output: 191

input: Endpoint output: IC50 of CC(C)[C@H](NC(=O)[C@H](Cc1c[nH]c2ccccc12)NC(=O)[C@@H](NC(=O)[C@H](Cc1c[nH]c2ccccc12)NC(=O)[C@@H]1CSSC[C@H](N)C(=O)NCC(=O)NCC(=O)N1)[C@@H](C)O)C(N)=O [(29)] (H-CGGCWTWV-NH2; disulfide 1-4) . Value?
output: 325

input: What does the data say about its IC50? Entry: CC(C)[C@@H](NC(=O)[C@@H](Cc1c[nH]c2ccccc12)NC(=O)[C@H](NC(=O)[C@@H](Cc1ccc(O)cc1)NC(=O)[C@H]1CSSC[C@@H](NC(=O)[C@@H](CCCCN)NC(=O)[C@H](N)CCCNC(=N)N)C(=O)NCC(=O)N[C@@H](Cc2ccccc2)C(=O)N1)[C@H](C)O)C(N)=O [(64)] (H-[dR][dK][dC]GF[dC][dY][dT][dW][dV]-NH2; disulfide 3-6)
output: 46.2

input: # query: IC50 of entry CC(C)[C@@H](NC(=O)[C@@H](Cc1c[nH]c2ccccc12)NC(=O)[C@@H](CCC(N)=O)NC(=O)[C@H](NC(=O)[C@@H](Cc1c[nH]c2ccccc12)NC(=O)[C@H]1CSSC[C@@H](NC(=O)[C@@H](CCCCN)NC(=O)[C@H](N)CCCNC(=N)N)C(=O)NCC(=O)NCC(=O)N1)[C@H](C)O)C(N)=O [(17)] (H-[dR][dK][dC]GG[dC][dW][dT][dQ][dW][dV]-NH2; disulfide 3-6)
output: 225

input: Query: IC50; subject: CC(C)[C@@H](NC(=O)[C@@H](Cc1c[nH]c2ccccc12)NC(=O)[C@H](NC(=O)[C@@H](Cc1c[nH]c2ccccc12)NC(=O)[C@H]1CSSC[C@@H](NC(=O)[C@@H](CCCCN)NC(=O)[C@H](N)CCCNC(=N)N)C(=O)N[C@H](C)C(=O)N[C@@H](Cc2ccccc2)C(=O)N1)[C@H](C)O)C(N)=O [(11)] (H-[dR][dK][dC][dA]F[dC][dW][dT][dW][dV]-NH2; disulfide 3-6)
output: 7

input: What IC50 value was documented for this compound, CC(C)C[C@@H]1NC(=O)CNC(=O)[C@H](NC(=O)[C@@H](CCCCN)NC(=O)[C@H](N)CCCNC(=N)N)CSSC[C@H](C(=O)N[C@H](Cc2c[nH]c3ccccc23)C(=O)N[C@@H](C(=O)N[C@H](Cc2c[nH]c3ccccc23)C(=O)N[C@@H](C(N)=O)C(C)C)[C@H](C)O)NC1=O [(69)] (H-[dR][dK][dC]GL[dC][dW][dT][dW][dV]-NH2; disulfide 3-6) ?
output: 146
